Entry source: patent US20260042764A1

# target.of.assay: Avi-KRAS G12D (1-169) GppNHp/RAF1 RBD-3xFLAG (52-151) (Homo sapiens, UniProt P01116, G12D)
# Construct: Avi-KRAS G12D (1-169)
# Sequence (P01116 1-169 isoform P01116-2 G12D): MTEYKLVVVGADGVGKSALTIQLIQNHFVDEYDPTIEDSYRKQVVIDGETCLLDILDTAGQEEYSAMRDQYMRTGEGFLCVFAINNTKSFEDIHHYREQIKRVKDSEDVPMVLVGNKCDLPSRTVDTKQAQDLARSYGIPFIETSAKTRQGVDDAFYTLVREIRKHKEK
# protocol.text: Raf1-KRAS G12D-GppNHP disruption HTRF assay (Biological Example 1)
# Type: binding
# assay.setup: KRAS G12D, GppNHp-loaded; class symbols

molecule	target.of.assay	IC50
CCN1C[C@H](N(CC)c2nc(OC[C@@]34CCCN3C[C@H](F)C4)nc3c(F)c(-c4ccc(F)c5sc(N)c(C#N)c45)c(C(F)(F)F)cc23)CC1=O (atropisomer, axis not shown) [Compound 699]	Avi-KRAS G12D (1-169) GppNHp/RAF1 RBD-3xFLAG (52-151) (Homo sapiens, UniProt P01116, G12D)	100 to 1000 nM
Cc1ccc(CN(C)c2nc(OC[C@@]34CCCN3C[C@H](F)C4)nc3c(F)c(-c4ccc(F)c5sc(N)c(C#N)c45)c(C(F)(F)F)cc23)c(N)n1 (atropisomer, axis not shown) [Compound 736]	Avi-KRAS G12D (1-169) GppNHp/RAF1 RBD-3xFLAG (52-151) (Homo sapiens, UniProt P01116, G12D)	100 to 1000 nM
CCN(c1nc(OC[C@@]23CCCN2C[C@H](F)C3)nc2c(F)c(-c3ccc(F)c4sc(N)c(C#N)c34)c(C(F)(F)F)cc12)[C@H]1CCN(C(=O)N2CC(F)C2)C1 (atropisomer, axis not shown) [Compound 606]	Avi-KRAS G12D (1-169) GppNHp/RAF1 RBD-3xFLAG (52-151) (Homo sapiens, UniProt P01116, G12D)	< 100 nM
CCN(c1nc(OC[C@@]23CCCN2C[C@H](F)C3)nc2c(F)c(-c3ccc(F)c4sc(N)c(C#N)c34)c(C(F)(F)F)cc12)[C@H]1CCN(C(=O)[C@@H]2C[C@@H]2C)C1 (atropisomer, axis not shown) [Compound 689]	Avi-KRAS G12D (1-169) GppNHp/RAF1 RBD-3xFLAG (52-151) (Homo sapiens, UniProt P01116, G12D)	< 100 nM
CCN(c1nc(OC[C@@]23CCCN2C[C@H](F)C3)nc2c(F)c(-c3ccc(F)c4sc(N)c(C#N)c34)c(C(F)(F)F)cc12)[C@H]1CCN(C(=O)OC2CCC2)C1 (atropisomer, axis not shown) [Compound 802]	Avi-KRAS G12D (1-169) GppNHp/RAF1 RBD-3xFLAG (52-151) (Homo sapiens, UniProt P01116, G12D)	< 100 nM
CCN(c1nc(OC[C@@]23CCCN2C[C@H](F)C3)nc2c(F)c(-c3ccc(F)c4sc(N)c(C#N)c34)c(C(F)(F)F)cc12)[C@H]1CCN(C(=O)OC2CCN(C(C)=O)C2)C1 (stereo partly drawn) [Compound 711]	Avi-KRAS G12D (1-169) GppNHp/RAF1 RBD-3xFLAG (52-151) (Homo sapiens, UniProt P01116, G12D)	< 100 nM
CCN(c1nc(OC[C@@H]2C[C@@H](OC)CN2C)nc2c(F)c(-c3ccc(F)c4sc(N)c(C#N)c34)c(C(F)(F)F)cc12)[C@H]1CCN(C(=O)C(C)C)C1 [Compound 706]	Avi-KRAS G12D (1-169) GppNHp/RAF1 RBD-3xFLAG (52-151) (Homo sapiens, UniProt P01116, G12D)	100 to 1000 nM
COC(=O)N1CC[C@H](N(C)c2nc(OC[C@@]34CCCN3C[C@H](F)C4)nc3c(F)c(-c4ccc(F)c5sc(N)c(C#N)c45)c(C(F)(F)F)cc23)C1 (atropisomer, axis not shown) [Compound 756]	Avi-KRAS G12D (1-169) GppNHp/RAF1 RBD-3xFLAG (52-151) (Homo sapiens, UniProt P01116, G12D)	< 100 nM
C/C=C/C(=O)N1CC[C@H](N(CC)c2nc(OC[C@@]34CCCN3C[C@H](F)C4)nc3c(F)c(-c4ccc(F)c5sc(N)c(C#N)c45)c(C(F)(F)F)cc23)C1 (atropisomer, axis not shown) [Compound 674]	Avi-KRAS G12D (1-169) GppNHp/RAF1 RBD-3xFLAG (52-151) (Homo sapiens, UniProt P01116, G12D)	< 100 nM
CCN(c1nc(OCC23CCCN2CC(F)C3)nc2c(F)c(-c3ccc(F)c4sc(N)c(C#N)c34)c(C(F)(F)F)cc12)C1CCN(C(=O)c2cccnc2)C1 (stereo not drawn) [Compound 715]	Avi-KRAS G12D (1-169) GppNHp/RAF1 RBD-3xFLAG (52-151) (Homo sapiens, UniProt P01116, G12D)	< 100 nM
CCN(c1nc(OC[C@@]23CCCN2C[C@H](F)C3)nc2c(F)c(-c3ccc(F)c4sc(N)c(C#N)c34)c(C(F)(F)F)cc12)[C@H]1CCN(C(=O)N2CC3C(C2)C3(F)F)C1 (stereo partly drawn) [Compound 657]	Avi-KRAS G12D (1-169) GppNHp/RAF1 RBD-3xFLAG (52-151) (Homo sapiens, UniProt P01116, G12D)	< 100 nM
CCN(c1nc(OC[C@@]23CCCN2C[C@H](F)C3)nc2c(F)c(-c3ccc(F)c4sc(N)c(C#N)c34)c(C(F)(F)F)cc12)[C@H]1CCN(C(=O)[C@H](C)OC)[C@@H]1C (atropisomer, axis not shown) [Compound 781]	Avi-KRAS G12D (1-169) GppNHp/RAF1 RBD-3xFLAG (52-151) (Homo sapiens, UniProt P01116, G12D)	< 100 nM
CN(C)C(=O)N1CC[C@H](N(c2nc(OC[C@@]34CCCN3C[C@H](F)C4)nc3c(F)c(-c4ccc(F)c5sc(N)c(C#N)c45)c(C(F)(F)F)cc23)C2CC2)C1 (atropisomer, axis not shown) [Compound 743]	Avi-KRAS G12D (1-169) GppNHp/RAF1 RBD-3xFLAG (52-151) (Homo sapiens, UniProt P01116, G12D)	100 to 1000 nM
CCN(c1nc(OC[C@@]23CCCN2C[C@H](F)C3)nc2c(F)c(-c3ccc(F)c4sc(N)c(C#N)c34)c(C(F)(F)F)cc12)[C@H]1CCN(C(=O)OC2CCOCC2)C1 (atropisomer, axis not shown) [Compound 684]	Avi-KRAS G12D (1-169) GppNHp/RAF1 RBD-3xFLAG (52-151) (Homo sapiens, UniProt P01116, G12D)	< 100 nM
Cc1c(C(=O)N2CCC2)nn2c1CN(c1nc(OCC34CCCN3CC(F)C4)nc3c(F)c(-c4ccc(F)c5sc(N)c(C#N)c45)c(C(F)(F)F)cc13)CC2 (stereo not drawn) [Compound 742]	Avi-KRAS G12D (1-169) GppNHp/RAF1 RBD-3xFLAG (52-151) (Homo sapiens, UniProt P01116, G12D)	100 to 1000 nM
CCN1C[C@@H](N(CC)c2nc(OC[C@@]34CCCN3C[C@H](F)C4)nc3c(F)c(-c4ccc(F)c5sc(N)c(C#N)c45)c(C(F)(F)F)cc23)CC1=O (atropisomer, axis not shown) [Compound 634]	Avi-KRAS G12D (1-169) GppNHp/RAF1 RBD-3xFLAG (52-151) (Homo sapiens, UniProt P01116, G12D)	< 100 nM
CCN(c1nc(OC[C@@]23CCCN2C[C@H](F)C3)nc2c(F)c(-c3ccc(F)c4sc(N)c(C#N)c34)c(C(F)(F)F)cc12)[C@H]1CCN(C(=O)N2CC(F)C2)[C@@H]1C (atropisomer, axis not shown) [Compound 780]	Avi-KRAS G12D (1-169) GppNHp/RAF1 RBD-3xFLAG (52-151) (Homo sapiens, UniProt P01116, G12D)	< 100 nM
CCN(c1nc(OC[C@@]23CCCN2C[C@H](F)C3)nc2c(F)c(-c3ccc(F)c4sc(N)c(C#N)c34)c(C(F)(F)F)cc12)[C@H]1CCN(C(=O)[C@H]2CCCO2)C1 (atropisomer, axis not shown) [Compound 735]	Avi-KRAS G12D (1-169) GppNHp/RAF1 RBD-3xFLAG (52-151) (Homo sapiens, UniProt P01116, G12D)	< 100 nM

----------
# target.of.assay: Avi-KRAS G12R (1-169) GppNHp/RAF1 RBD-3xFLAG (52-151) (Homo sapiens, UniProt P01116, G12R)
# Construct: Avi-KRAS G12R (1-169)
# Sequence (P01116 1-169 isoform P01116-2 G12R): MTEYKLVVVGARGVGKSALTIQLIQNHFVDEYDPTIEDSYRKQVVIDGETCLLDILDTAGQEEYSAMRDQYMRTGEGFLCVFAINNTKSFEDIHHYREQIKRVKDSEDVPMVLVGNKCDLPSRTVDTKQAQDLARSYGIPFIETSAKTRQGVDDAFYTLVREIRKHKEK
# protocol.text: Raf1-KRAS G12R-GppNHP disruption HTRF assay (Biological Example 1)
# Assay type: binding
# assay.setup: KRAS G12R, GppNHp-loaded; Table 11

molecule	IC50
N#Cc1c(N)sc2c(F)ccc(-c3c(C(F)(F)F)cc4c(N5CCC(F)(F)C5)nc(OC[C@@]56CCCN5C[C@H](F)C6)nc4c3F)c12	0.1 to 1 µM
N#Cc1c(N)sc2c(F)ccc(-c3c(C(F)(F)F)cc4c(N5CCCCC5)nc(OC[C@@]56CCCN5C[C@H](F)C6)nc4c3F)c12	0.1 to 1 µM
Nc1nc2c(-c3c(C(F)(F)F)cc4c(N[C@H]5CC[C@@H](O)CC5)nc(OCC56CCCN5CCC6)nc4c3F)ccc(F)c2s1	1 to 10 µM
CC(=O)N(C)[C@H]1CCN(c2nc(OC[C@@]34CCCN3C[C@H](F)C4)nc3c(F)c(-c4ccc(F)c5sc(N)c(C#N)c45)c(C(F)(F)F)cc23)C1	1 to 10 µM
CCN(CCO)c1nc(OC[C@@]23CCCN2C[C@H](F)C3)nc2c(F)c(-c3ccc(F)c4sc(N)c(C#N)c34)c(C(F)(F)F)cc12	< 0.1 µM
COC[C@@H]1[C@H](N(C)c2nc(OC[C@@]34CCCN3C[C@H](F)C4)nc3c(F)c(-c4ccc(F)c5sc(N)c(C#N)c45)c(C(F)(F)F)cc23)CCN1C(C)=O	0.1 to 1 µM
CC1(O)COCCN(c2nc(OC[C@@]34CCCN3C[C@H](F)C4)nc3c(F)c(-c4ccc(F)c5sc(N)c(C#N)c45)c(C(F)(F)F)cc23)C1 (some centres unmarked)	0.1 to 1 µM
CCN(c1nc(OC[C@@]23CCCN2C[C@H](F)C3)nc2c(F)c(-c3ccc(F)c4sc(N)c(C#N)c34)c(C(F)(F)F)cc12)C1CC1	0.1 to 1 µM
N#CC[C@@H]1CN(c2nc(OC[C@@]34CCCN3C[C@H](F)C4)nc3c(F)c(-c4ccc(F)c5sc(N)c(C#N)c45)c(C(F)(F)F)cc23)CCO1	0.1 to 1 µM
CCN(c1nc(OC[C@@]23CCCN2C[C@H](F)C3)nc2c(F)c(-c3ccc(F)c4sc(N)c(C#N)c34)c(C(F)(F)F)cc12)[C@H]1CCN(C(C)=O)C1	< 0.1 µM
CC(=O)N1CC[C@H](N(C)c2nc(OC[C@@]34CCCN3C[C@H](F)C4)nc3c(F)c(-c4ccc(F)c5sc(N)c(C#N)c45)c(C(F)(F)F)cc23)[C@@H]1C (single isomer, unassigned) [Compound 194]	> 10 µM
